Consider the following molecules; for each one, report its pIC50.
Molecular target: hPAOX (Homo sapiens (Human))
Sequence (Q6QHF9 whole entry): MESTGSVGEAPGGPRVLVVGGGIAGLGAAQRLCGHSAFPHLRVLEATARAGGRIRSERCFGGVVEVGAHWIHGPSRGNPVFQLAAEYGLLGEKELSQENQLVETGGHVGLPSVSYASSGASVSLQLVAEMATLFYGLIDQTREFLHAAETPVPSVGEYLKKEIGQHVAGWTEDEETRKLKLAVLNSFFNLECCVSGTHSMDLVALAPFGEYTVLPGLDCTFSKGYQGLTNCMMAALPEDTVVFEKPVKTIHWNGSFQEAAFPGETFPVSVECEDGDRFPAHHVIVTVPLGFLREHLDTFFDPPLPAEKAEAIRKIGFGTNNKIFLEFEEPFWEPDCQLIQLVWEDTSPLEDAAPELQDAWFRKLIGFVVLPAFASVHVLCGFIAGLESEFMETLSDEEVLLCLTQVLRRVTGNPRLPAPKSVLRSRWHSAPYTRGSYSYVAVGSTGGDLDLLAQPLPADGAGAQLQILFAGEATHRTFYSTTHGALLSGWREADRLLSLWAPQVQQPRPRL
Experiment: Human PAOX assay (HyPerBlu chemiluminescent detection of hydrogen peroxide)
Conditions: 60 pM recombinant PAOX, 20 μM N-acetylspermine substrate
Protocol: The direct detection of hydrogen peroxide produced from the enzymatic reaction of hSMOX or hPAOX in a biochemical assay format was measured using HyPerBlu (Lumigen, Southfield, MI), a small molecule boronate probe that reacts with hydrogen peroxide to generate a chemiluminescent signal. Inhibition of hSMOX or hPAOX enzyme results in a decrease in luminescence. […]
One number for each entry, as −log10 of the molar value.

These solved cases illustrate the format of a correct answer.
[
  {
    "Molecule": "O=C(NCC1CCN(C2CC2)C1)c1cc2nc(-c3ccccc3)cc(-c3ccccc3)n2n1 (stereo not shown)",
    "Test system": "hPAOX (Homo sapiens (Human))",
    "pIC50": 6.27
  },
  {
    "Molecule": "CN(C)CCCNC(=O)c1cc2nc(-c3ccccc3)cc(N3CCCCC3)n2n1",
    "Test system": "hPAOX (Homo sapiens (Human))",
    "pIC50": 5.47
  },
  {
    "Molecule": "O=C(NCCCn1ccnc1)c1cc2nc(-c3ccccc3)cc(NC3CCC3)n2n1",
    "Test system": "hPAOX (Homo sapiens (Human))",
    "pIC50": 5.84
  }
]

Moving on to another molecule below.
Fill in the blank: the reported pIC50 of CN(C)CCCNC(=O)c1cc2nc(-c3ccccc3)cc(-c3ccccc3)n2n1 is ____.
6.17
